Measured values drawn from paper PMC11758220 for this set.

TARGET_UNDER_TEST: STARD3 (Homo sapiens)
Construct: STARD3(216-444); made in house; host or cells: E. coli BL21(DE3)
Sequence (Q14849 216-444): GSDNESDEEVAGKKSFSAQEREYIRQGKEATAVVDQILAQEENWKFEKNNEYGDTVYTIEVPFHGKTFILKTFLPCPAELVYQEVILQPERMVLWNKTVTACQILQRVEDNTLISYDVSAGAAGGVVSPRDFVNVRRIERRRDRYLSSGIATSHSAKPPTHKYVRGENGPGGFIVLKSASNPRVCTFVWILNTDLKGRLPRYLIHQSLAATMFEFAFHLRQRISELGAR
ASSAY_PROCEDURE: Differential scanning fluorimetry (DSF), STARD3
Type: binding
RUN_CONDITIONS: single dose, Dose = 10 µM
REPORTED_ENDPOINT: ΔTm at 10 µM (°C)
Please respond with the number in °C and leave the unit unwritten.

{"COMPOUND": "CC12CCC3CC1CCC21C(=Nc2ccc(Cl)cc21)O3 (stereo not shown) [Compound 15c]", "TARGET_UNDER_TEST": "STARD3 (Homo sapiens)", "UNIT_ANNOTATION": "°C", "MEASURED_RESULT": 0.0794}
{"COMPOUND": "Cc1c2c(nc3ccccc13)[C@@]1(C)CC[C@@H](O)C[C@H]1CC2", "TARGET_UNDER_TEST": "STARD3 (Homo sapiens)", "UNIT_ANNOTATION": "°C", "MEASURED_RESULT": -0.0816}
{"COMPOUND": "COc1ccc2c(c1)C(=O)N[C@]1(CCC[C@@H]3C[C@H](O)CC[C@@]31C)N2", "TARGET_UNDER_TEST": "STARD3 (Homo sapiens)", "UNIT_ANNOTATION": "°C", "MEASURED_RESULT": 0.114}
{"COMPOUND": "Cc1cc(C)c2c(c1)N=C1[C@@]2(O)CC[C@@H]2C[C@H](O)CC[C@]12C [Compound 14c]", "TARGET_UNDER_TEST": "STARD3 (Homo sapiens)", "UNIT_ANNOTATION": "°C", "MEASURED_RESULT": 0.0424}
{"COMPOUND": "COc1ccc2[nH]c3c(c2c1)CC[C@@H]1C[C@H](O)CC[C@]31C [Compound 10f]", "TARGET_UNDER_TEST": "STARD3 (Homo sapiens)", "UNIT_ANNOTATION": "°C", "MEASURED_RESULT": -0.0471}
{"COMPOUND": "C[C@]12CC[C@@H](O)C[C@H]1CCc1sc(N)nc12", "TARGET_UNDER_TEST": "STARD3 (Homo sapiens)", "UNIT_ANNOTATION": "°C", "MEASURED_RESULT": 0.0829}
{"COMPOUND": "COc1ccc2c(c1)C(=O)CC[C@@H]1C[C@H](O)CC[C@]1(C)C(=O)N2 [Compound 11d]", "TARGET_UNDER_TEST": "STARD3 (Homo sapiens)", "UNIT_ANNOTATION": "°C", "MEASURED_RESULT": -0.119}
{"COMPOUND": "CC(C)(C)OC(=O)N1CCN(c2ccc3c(c2)C24CCC5CC(CCC52C)OC4=N3)CC1 (stereo not shown) [Compound 19e]", "TARGET_UNDER_TEST": "STARD3 (Homo sapiens)", "UNIT_ANNOTATION": "°C", "MEASURED_RESULT": 4.3}

For reference, reported ΔTm at 10 µM for `C[C@]12CC[C@@H]3C[C@H]1CC[C@@]21C(=Nc2ccc(N4CCN(Cc5ccncc5)CC4)cc21)O3` stands at 3.8

For reference, reported ΔTm at 10 µM for `C[C@]12CC[C@@H](O)C[C@H]1CCC[C@]21NC(=O)c2ccccc2N1` stands at -0.16

For reference, reported ΔTm at 10 µM for `Cc1ccc2[nH]c3c(c(=O)c2c1)C[C@@H]1C[C@H](O)CC[C@]31C` stands at -0.0694

For reference, reported ΔTm at 10 µM for C[C@]12CC[C@@H](O)C[C@H]1CCC(=O)c1cc(Br)ccc1NC2=O [Compound 11b] stands at -0.0537

For reference, reported ΔTm at 10 µM for COc1ccc2c(c1)[C@@]13CC[C@@H]4C[C@@H](CC[C@@]41C)OC3=N2 [Compound 15f] stands at 0.559
